These data points were gathered from paper PMC5642598.

Target: HDAC1 (Homo sapiens)
Construct: HDAC1-NanoLuc fusion protein
Sequence (Q13547 whole entry, the tested form may be a part): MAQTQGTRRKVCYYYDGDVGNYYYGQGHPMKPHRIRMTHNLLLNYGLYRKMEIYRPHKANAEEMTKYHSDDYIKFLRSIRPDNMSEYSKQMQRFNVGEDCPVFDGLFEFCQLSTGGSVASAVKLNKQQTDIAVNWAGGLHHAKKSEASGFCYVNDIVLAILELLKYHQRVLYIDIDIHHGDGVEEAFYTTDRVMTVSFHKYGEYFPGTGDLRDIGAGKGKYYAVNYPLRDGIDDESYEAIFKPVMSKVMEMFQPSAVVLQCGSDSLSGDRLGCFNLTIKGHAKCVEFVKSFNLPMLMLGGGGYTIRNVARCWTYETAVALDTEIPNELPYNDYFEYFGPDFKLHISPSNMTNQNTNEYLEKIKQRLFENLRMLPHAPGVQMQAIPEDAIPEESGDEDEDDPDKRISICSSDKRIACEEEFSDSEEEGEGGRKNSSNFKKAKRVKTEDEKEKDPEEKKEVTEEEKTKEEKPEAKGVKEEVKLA
Assay: NanoBRET target engagement in live TT cells, competitive displacement of HDAC Tracer-01
measurement_label: pEC50
Numbers only, as −log10 of the molar value.

# input Respond only with pEC50 recorded for CC[C@H](C)[C@H]1NC(=O)[C@H]2CSSCC/C=C/[C@H](CC(=O)N[C@H](CCSC)C(=O)N2)OC(=O)C[C@@H]1O
# output 8.17
